System: UACC-257 melanoma
Experiment: NCI-60 one-dose screen, 48 h
Details: 10 µM
Procedure: Cells are grown in 96 well plates and exposed to the test compound for 48 hours. Compounds are tested at a single concentration, which is 10^-5 M for most compounds. The reported endpoint is percent growth (GI% or GIPRCNT), where numbers from 0 - 100% represent growth inhibition, and numbers from -100% - 0 represent cell death. For example, a value of 40 represents 60% growth inhibition. A value of 0 means no net growth occurred over the course of the experiment. […]
About 83,000 compounds went through this panel and 20% of them were active in at least one assay; those are over-represented in the sample as a whole. Calls of active or inactive are those of the source. How the source made its calls: active means growth percent below 10; inactive means the rest.
Please reply with one of these outcomes: YES for active, NO for inactive

>>> assigned_class("O=C(CCl)Oc1ccc(OC(=O)CCl)cc1")
"NO"
>>> assigned_class("NS(=O)(=O)Oc1ccc(-c2ccc3sccc3c2)cc1")
"NO"
>>> assigned_class("COc1ccc(-c2onc(N)c2-c2cc(OC)c3c(c2)OCO3)cc1")
"NO"

Recorded call for `CCn1c(CSc2nc3ccccc3c(=O)n2CCc2ccccc2)n[nH]c1=S` ?
NO

Recorded call for `CN1C(C(=O)Nc2ccccn2)=C(O)c2sc(Cl)cc2S1(=O)=O` ?
NO

Recorded call for `COc1cc(-c2nn(-c3cccc(NC(=O)NCCNS(=O)(=O)c4ccc(Cl)cc4)c3)cc2-c2ccncc2)ccc1Cl` ?
NO

Recorded call for `CC[N+](CC)=c1ccc2nc3c(cc(NCc4ccccc4)c4ccccc43)oc-2c1` ?
YES

Recorded call for `COc1cc(/C=C/c2cc(/C=C/c3ccc(O)c(OC)c3)n(C(=O)Nc3ccc(C)cc3)n2)ccc1O` ?
YES

Recorded call for `COc1cc(C(=O)n2nc(-c3cc(OC)c(OC)c(OC)c3)nc2N)cc(OC)c1OC` ?
NO

Recorded call for COC1=CC(=O)OC(c2ccc(OC)cc2)C1 (stereo not given) ?
NO
